These measurements were taken from the supplement of paper PMC9112550.

- Test system: Escherichia coli TOP10
- TEST: shrunken log2 fold change of peptide-encoding DNA abundance (4.5 h post-induction vs induction); higher = less antimicrobial activity (less host growth inhibition)
- ASSAY_CONTEXT: time post-induction: 4.5 h; library: site-saturation at positions 5, 18, 19, 20
Listing of recorded shrunken log2 fold change by entry.

| BIOSEQUENCE | shrunken log2 fold change |
| --- | --- |
| RRIRWRPPRLPRPRPRPAECPRP | -0.0444 |
| RRIRPRPPRLPRPRPRPYVQPRP | -0.147 |
| RRIRLRPPRLPRPRPRPSVRPRP | 0.0468 |

====

- System: Escherichia coli TOP10;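 note: peptides expressed intracellularly from a pBAD plasmid library in pooled LB shake-flask culture, induced with 0.3% L-arabinose, DNA abundance read by NGS, three biological replicates, DESeq2 with apeglm shrinkage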
- TEST: shrunken log2 fold change of peptide-encoding DNA abundance (4.5 h post-induction vs induction); higher = less antimicrobial activity (less host growth inhibition)
- ASSAY_CONTEXT: time post-induction: 4.5 h; library: site-saturation at positions 5, 18, 19, 20

| BIOSEQUENCE | shrunken log2 fold change |
| --- | --- |
| RRIRARPPRLPRPRPRPCNMPRP | -0.253 |
| RRIRHRPPRLPRPRPRPRNRPRP | 0.672 |
| RRIRIRPPRLPRPRPRPGVLPRP | -0.0531 |
| RRIRWRPPRLPRPRPRPNLIPRP | 0.0144 |
| RRIRDRPPRLPRPRPRPAYFPRP | 0.128 |
| RRIRTRPPRLPRPRPRPIAWPRP | -0.104 |
| RRIRWRPPRLPRPRPRPDCWPRP | 0.967 |
| RRIRQRPPRLPRPRPRPNDEPRP | 0.0763 |
| RRIRDRPPRLPRPRPRPVGLPRP | 0.627 |
| RRIRGRPPRLPRPRPRPFYVPRP | 0.0462 |
| RRIRMRPPRLPRPRPRPRHQPRP | 0.155 |
| RRIRSRPPRLPRPRPRPLNCPRP | -0.374 |
| RRIRSRPPRLPRPRPRPVNCPRP | -0.247 |
| RRIRLRPPRLPRPRPRPIKRPRP | -0.466 |
| RRIRIRPPRLPRPRPRPHQCPRP | -0.331 |
| RRIRWRPPRLPRPRPRPVSRPRP | 0.616 |
| RRIRPRPPRLPRPRPRPYFIPRP | -0.656 |
| RRIRCRPPRLPRPRPRPKANPRP | 1.15 |
| RRIRDRPPRLPRPRPRPCCYPRP | 0.503 |
| RRIRIRPPRLPRPRPRPDCSPRP | 0.0951 |
| RRIRYRPPRLPRPRPRPWSSPRP | 0.0132 |
| RRIRRRPPRLPRPRPRPDGYPRP | -0.0109 |
| RRIRCRPPRLPRPRPRPVDTPRP | -0.0338 |
| RRIRGRPPRLPRPRPRPQDYPRP | -0.0805 |
| RRIRVRPPRLPRPRPRPSGAPRP | 0.197 |
| RRIRQRPPRLPRPRPRPKWVPRP | 0.0809 |
| RRIRLRPPRLPRPRPRPFFQPRP | 0.152 |
| RRIRSRPPRLPRPRPRPYCEPRP | -0.352 |
| RRIRKRPPRLPRPRPRPSDHPRP | -0.239 |
| RRIRCRPPRLPRPRPRPHCKPRP | -0.348 |
| RRIRHRPPRLPRPRPRPRCRPRP | 0.615 |
| RRIRRRPPRLPRPRPRPASSPRP | -0.0219 |
| RRIRCRPPRLPRPRPRPLIGPRP | -0.0236 |
| RRIRIRPPRLPRPRPRPLMPPRP | 1.27 |
| RRIRARPPRLPRPRPRPVECPRP | 0.0527 |
| RRIRSRPPRLPRPRPRPRILPRP | -0.34 |
| RRIRARPPRLPRPRPRPWDSPRP | -0.277 |
| RRIRNRPPRLPRPRPRPMCAPRP | -0.253 |
